Target: Voltage-gated inwardly rectifying potassium channel KCNH2 (Homo sapiens)
Sequence (Q12809 whole entry): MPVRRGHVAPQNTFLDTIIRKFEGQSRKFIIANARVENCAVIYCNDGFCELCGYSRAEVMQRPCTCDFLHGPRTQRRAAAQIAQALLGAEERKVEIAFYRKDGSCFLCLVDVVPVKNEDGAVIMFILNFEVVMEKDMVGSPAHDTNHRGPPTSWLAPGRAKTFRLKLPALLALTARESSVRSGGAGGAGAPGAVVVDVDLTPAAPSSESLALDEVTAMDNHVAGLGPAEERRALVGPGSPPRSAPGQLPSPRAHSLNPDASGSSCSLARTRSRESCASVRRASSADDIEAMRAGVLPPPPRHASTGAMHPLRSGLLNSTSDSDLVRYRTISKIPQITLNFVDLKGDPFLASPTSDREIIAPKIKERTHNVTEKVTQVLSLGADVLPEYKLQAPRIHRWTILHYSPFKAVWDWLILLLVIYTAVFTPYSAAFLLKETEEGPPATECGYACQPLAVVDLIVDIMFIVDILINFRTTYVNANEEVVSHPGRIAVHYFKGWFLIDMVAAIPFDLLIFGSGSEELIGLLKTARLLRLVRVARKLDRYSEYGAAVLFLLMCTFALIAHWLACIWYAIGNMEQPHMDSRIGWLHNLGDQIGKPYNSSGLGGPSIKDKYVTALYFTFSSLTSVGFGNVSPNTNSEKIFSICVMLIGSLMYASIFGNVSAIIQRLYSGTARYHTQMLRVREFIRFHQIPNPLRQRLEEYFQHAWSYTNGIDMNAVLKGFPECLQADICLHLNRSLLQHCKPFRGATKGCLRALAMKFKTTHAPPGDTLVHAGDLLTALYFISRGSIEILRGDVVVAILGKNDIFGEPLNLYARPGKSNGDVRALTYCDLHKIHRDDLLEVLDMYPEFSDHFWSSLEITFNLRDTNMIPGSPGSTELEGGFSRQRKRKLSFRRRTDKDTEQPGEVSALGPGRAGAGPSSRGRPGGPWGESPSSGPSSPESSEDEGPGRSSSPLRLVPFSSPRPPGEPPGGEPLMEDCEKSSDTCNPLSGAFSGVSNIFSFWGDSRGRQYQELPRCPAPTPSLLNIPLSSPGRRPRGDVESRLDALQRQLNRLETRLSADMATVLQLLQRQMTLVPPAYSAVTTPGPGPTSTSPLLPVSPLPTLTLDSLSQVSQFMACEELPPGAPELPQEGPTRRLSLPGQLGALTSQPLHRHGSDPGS
Assay: Inhibition of radioligand binding to human ERG expressed in HEK293 cell membranes by scintillation counting method
RECORDED_METRIC: IC50 (µM)
Just the number please, in µM, no unit attached.

Here are 6 compounds together with their reported answers.
CCCC[C@@H](CCO)Nc1nc(N)nc2ccc(OC)cc12 ... 6
CCC[C@@H](CCO)Nc1nc(N)nc2ccccc12 ... 6.8
CCCC[C@@H](CCO)Nc1nc(N)nc2cc(C)ccc12 ... 1.8
CCC[C@@H](CCO)Nc1nc(N)nc2ccc(C)cc12 ... 7.2
CCC[C@@H](CCO)Nc1nc(N)nc2cccc(F)c12 ... 8.9
CCCC[C@@H](CCO)Nc1nc(N)nc2cccc(C)c12 ... 0.6

Okay, next one:
Data request: Endpoint output: IC50 of "CCCC[C@@H](CCO)Nc1nc(N)nc2c(F)cccc12" . Value?
Data returned: 4.47

meta.source: ChEMBL document CHEMBL4130635
